tested on: Citrobacter diversus; experiment: MIC against Gram-negative bacteria: Citrobacter diversus; format: cell-based; details: C. diversus; 10 h cultivation at 37° C.; 5×10^5 CFU/mL
Recorded MIC (μg/mL) C. diversus for the following substances
test-readout: MIC (μg/mL) C. diversus

substance="PRT177 (GPGPCDGNPCANGGSCSETPRSFECTCPRGFYGLRCE; listed as Homo sapiens)" system_tested="Citrobacter diversus" reported="12.5 µg/mL"
substance="PRT825 (FGPNCTHVCGCGQGAACDPVTGTCLCPPGRAGVRCE; listed as Homo sapiens)" system_tested="Citrobacter diversus" reported="25 µg/mL"
substance="PRT820 (YGDNCRHSCLCQNGGTCDPVSGHCACPEGWAGLACE; listed as Homo sapiens)" system_tested="Citrobacter diversus" reported="12.5 µg/mL"
substance="PRT843 (CQCNGHGDPRRGHCDNLSGLCFCQDHTEGAHCQLCSPGYYGDPRAGGSCFR; listed as Homo sapiens)" system_tested="Citrobacter diversus" reported="25 µg/mL"
substance="PRT835 (DVDECASSRGGCEHHCTNLAGSFQCSCEAGYRLHEDRRGCS; listed as Homo sapiens)" system_tested="Citrobacter diversus" reported="12.5 µg/mL"
substance="PRT818 (DCRSACNCTAGAACDAVNGSCLCPAGRRGPRCA; listed as Homo sapiens)" system_tested="Citrobacter diversus" reported="12.5 µg/mL"
substance="PRT891 (DVDECASTPCKNGAKCLDGPNTYTCVCTEGYTGTHCE; listed as Homo sapiens)" system_tested="Citrobacter diversus" reported="12.5 µg/mL"
substance="PRT878 (ADPLCAPARNPCANGGLCTVLAPGEVGCDCSHTGFGGKFCS; listed as Homo sapiens)" system_tested="Citrobacter diversus" reported="12.5 µg/mL"
substance="PRT160 (KIDYCILDPCRNGATCISSLSGFTCQCPEGYFGSACE; listed as Homo sapiens)" system_tested="Citrobacter diversus" reported="12.5 µg/mL"
substance="PRT836 (FGHDCSLTCDDCRNGGTCLLGLDGCDCPEGWTGLICN; listed as Homo sapiens)" system_tested="Citrobacter diversus" reported="25 µg/mL"
substance="PRT245 (DIDECASGKVICPYNRRCVNTFGSYYCKCHIGFELQYIS; listed as Homo sapiens)" system_tested="Citrobacter diversus" reported="25 µg/mL"
substance="PRT163 (EYNECLSAPCLNAATCRDLVNGYECVCLAEYKGTHCE; listed as Homo sapiens)" system_tested="Citrobacter diversus" reported="12.5 µg/mL"
substance="PRT169 (CIRYPGCLHGTCQQPWQCNCQEGWGGLFC; listed as Homo sapiens)" system_tested="Citrobacter diversus" reported="12.5 µg/mL"
substance="PRT217 (DIDECTIPPYCHQRCVNTPGSFYCQCSPGFQLAANNYTCV; listed as Homo sapiens)" system_tested="Citrobacter diversus" reported="12.5 µg/mL"
substance="PRT838 (GLQECSAYCGSHGTCASPLGPCRCEPGFLGRACD; listed as Homo sapiens)" system_tested="Citrobacter diversus" reported="25 µg/mL"
substance="PRT853 (DLNECGLKPRPCKHRCMNTYGSYKCYCLNGYMLMPDGSCS; listed as Homo sapiens)" system_tested="Citrobacter diversus" reported="25 µg/mL"
